Conditions: in ethyl acetate, 308.15 K
MEASURED_ATTRIBUTE: solubility (mole fraction)
Hey, just send me the number, nothing else.

Field request: solubility (mole fraction) | item: Cc1cccc(C(=O)O)c1[N+](=O)[O-]
0.016

* * *

Details: in ethyl acetate, 295.65 K
MEASURED_ATTRIBUTE: solubility (mole fraction)
Hey, just send me the number, nothing else.

Field request: solubility (mole fraction) | item: Cc1cccc(C(=O)O)c1[N+](=O)[O-]
0.0121

* * *

Settings: in methanol, 308.15 K
MEASURED_ATTRIBUTE: solubility (mole fraction)
Hey, just send me the number, nothing else.

Field request: solubility (mole fraction) | item: Cc1cccc(C(=O)O)c1[N+](=O)[O-]
0.0196

* * *

Conditions: in ethyl acetate, 305.65 K
MEASURED_ATTRIBUTE: solubility (mole fraction)
Hey, just send me the number, nothing else.

Field request: solubility (mole fraction) | item: Cc1cccc(C(=O)O)c1[N+](=O)[O-]
0.0151

* * *

Conditions: in n-propanol, 298.15 K
MEASURED_ATTRIBUTE: solubility (mole fraction)
Hey, just send me the number, nothing else.

Field request: solubility (mole fraction) | item: Cc1cccc(C(=O)O)c1[N+](=O)[O-]
0.0116

* * *

Details: in ethanol, 288.15 K
MEASURED_ATTRIBUTE: solubility (mole fraction)
Hey, just send me the number, nothing else.

Field request: solubility (mole fraction) | item: Cc1cccc(C(=O)O)c1[N+](=O)[O-]
0.012

* * *

Details: in isopropanol, 305.65 K
MEASURED_ATTRIBUTE: solubility (mole fraction)
Hey, just send me the number, nothing else.

Field request: solubility (mole fraction) | item: Cc1cccc(C(=O)O)c1[N+](=O)[O-]
0.0163

* * *

Conditions: in methanol, 305.65 K
MEASURED_ATTRIBUTE: solubility (mole fraction)
Hey, just send me the number, nothing else.

Field request: solubility (mole fraction) | item: Cc1cccc(C(=O)O)c1[N+](=O)[O-]
0.0183

* * *

Conditions: in methanol, 283.15 K
MEASURED_ATTRIBUTE: solubility (mole fraction)
Hey, just send me the number, nothing else.

Field request: solubility (mole fraction) | item: Cc1cccc(C(=O)O)c1[N+](=O)[O-]
0.0097

* * *

Conditions: in ethanol, 308.15 K
MEASURED_ATTRIBUTE: solubility (mole fraction)
Hey, just send me the number, nothing else.

Field request: solubility (mole fraction) | item: Cc1cccc(C(=O)O)c1[N+](=O)[O-]
0.0223

* * *

Conditions: in ethanol, 293.15 K
MEASURED_ATTRIBUTE: solubility (mole fraction)
Hey, just send me the number, nothing else.

Field request: solubility (mole fraction) | item: Cc1cccc(C(=O)O)c1[N+](=O)[O-]
0.014

* * *

Details: in methanol, 318.15 K
MEASURED_ATTRIBUTE: solubility (mole fraction)
Hey, just send me the number, nothing else.

Field request: solubility (mole fraction) | item: Cc1cccc(C(=O)O)c1[N+](=O)[O-]
0.0252

* * *

Settings: in ethanol, 305.65 K
MEASURED_ATTRIBUTE: solubility (mole fraction)
Hey, just send me the number, nothing else.

Field request: solubility (mole fraction) | item: Cc1cccc(C(=O)O)c1[N+](=O)[O-]
0.0207

* * *

Settings: in acetonitrile, 293.15 K
MEASURED_ATTRIBUTE: solubility (mole fraction)
Hey, just send me the number, nothing else.

Field request: solubility (mole fraction) | item: Cc1cccc(C(=O)O)c1[N+](=O)[O-]
0.00633

src = BigSolDB 2.1
